The measurements presented in this section are drawn from ChEMBL document CHEMBL5120828.

- protocol-summary: Metabolic stability in human liver microsomes assessed as intrinsic clearance
- Assay type: ADME
attribute-measured: CLint (µL/min/mg)

These recorded examples may help you get a feel for the data.
Please report the recorded CLint for COC(=O)N1CCN([C@H]2CC[C@H](Nc3nc(Nc4cnn(C)c4)nc4ccn(CC#N)c(=O)c34)CC2)CC1 . 25

Input CC(=O)N1CCC(n2cc(Nc3nc(NC4(C)CC4)c4c(=O)n(C)ccc4n3)cn2)CC1 83

P = CN1CC[C@H](n2cc(Nc3nc(NC4(C)CC4)c4c(=O)n(C)ccc4n3)cn2)[C@@H](F)C1 (racemic)
Q = CN1CC2(CC(n3cc(Nc4nc(NC5(C)CC5)c5c(=O)n(C)ccc5n4)cn3)C2)C1
R = CN1CCC(n2cc(Nc3nc(NC4(C)CC4)c4c(=O)n(-c5cnn[nH]5)ccc4n3)cn2)CC1
Arrange items by their CLint values in increasing order. Would you mind listing the labels in the order requested? Q, R, P
